# TARGET: human recombinant 5-HT6 receptors (Homo sapiens, UniProt P50406)
# Construct: 20705, USA RB-HS6
# Sequence (P50406 whole entry): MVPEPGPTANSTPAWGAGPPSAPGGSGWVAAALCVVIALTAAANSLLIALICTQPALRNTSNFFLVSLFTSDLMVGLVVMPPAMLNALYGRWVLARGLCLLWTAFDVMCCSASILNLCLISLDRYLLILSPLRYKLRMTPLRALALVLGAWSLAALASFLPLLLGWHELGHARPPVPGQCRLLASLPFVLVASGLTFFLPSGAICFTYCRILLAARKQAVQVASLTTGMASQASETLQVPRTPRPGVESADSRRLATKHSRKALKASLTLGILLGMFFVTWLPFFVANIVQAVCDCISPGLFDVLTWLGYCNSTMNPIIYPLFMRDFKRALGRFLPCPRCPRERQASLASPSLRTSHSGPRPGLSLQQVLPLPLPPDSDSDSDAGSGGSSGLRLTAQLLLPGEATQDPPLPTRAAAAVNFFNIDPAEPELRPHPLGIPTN
# PROTOCOL DETAILS: Binding to human recombinant 5-HT6 receptors ([3H]-LSD displacement, HEK293 membranes)
# APPLIED CONDITIONS: [3H]-LSD 1 nM, membranes of HEK293 cells, 1 hour at 37° C.; Ki=IC50/(1+L/KD)
TEST READOUT: pKi
Answers are plain numbers, as −log10 of the molar value.

I'm curious: which pKi was measured for CCn1ccc2ccc(S(=O)(=O)Nc3cccc(NC(=O)C(C)(C)C)c3)cc21 [Example 44] tested on human recombinant 5-HT6 receptors (Homo sapiens, UniProt P50406)?
7.92
